Origin of measurements: paper PMC3105069

- TESTED TARGET: GPR109B (Homo sapiens)
- Sequence (P49019 whole entry): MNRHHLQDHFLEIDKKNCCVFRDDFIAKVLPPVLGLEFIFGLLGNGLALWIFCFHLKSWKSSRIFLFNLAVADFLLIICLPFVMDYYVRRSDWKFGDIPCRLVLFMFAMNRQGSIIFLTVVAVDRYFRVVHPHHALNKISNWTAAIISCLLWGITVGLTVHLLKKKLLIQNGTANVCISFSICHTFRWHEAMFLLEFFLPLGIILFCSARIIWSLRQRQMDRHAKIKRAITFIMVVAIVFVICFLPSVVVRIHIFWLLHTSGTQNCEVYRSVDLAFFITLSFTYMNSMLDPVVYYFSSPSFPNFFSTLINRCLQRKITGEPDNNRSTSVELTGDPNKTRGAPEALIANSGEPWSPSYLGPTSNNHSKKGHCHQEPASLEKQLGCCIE
MEASUREMENT KIND: pEC50
Convention used: pEC50 is expressed as -log10 of the molar concentration.

Request: Can you look up the measured pEC50 of O=C(O)c1cccnc1 for me?
Response: 4.60
